target: Recombinant human JAK1 catalytic domain (Homo sapiens (Human)); assay: JAK1 inhibition assay; assay type: biochemical; settings: semi-quantitative score
Sequence (P23458 850-1154): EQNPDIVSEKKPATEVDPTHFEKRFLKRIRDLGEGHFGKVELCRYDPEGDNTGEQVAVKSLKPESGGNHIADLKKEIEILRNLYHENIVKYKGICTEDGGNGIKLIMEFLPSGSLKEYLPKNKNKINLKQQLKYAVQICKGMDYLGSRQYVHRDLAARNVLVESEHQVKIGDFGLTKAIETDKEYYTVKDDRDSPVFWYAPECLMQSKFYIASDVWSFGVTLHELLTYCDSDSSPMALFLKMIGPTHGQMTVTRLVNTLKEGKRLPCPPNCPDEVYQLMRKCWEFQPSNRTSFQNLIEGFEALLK
pIC50: −log10 of the molar value.
Could you please report measured pIC50 for the items listed next?

According to the records, this compound O=C(N[C@H]1CCN(Cc2ccccc2)C1)c1ccc(-c2cccc3nc(NC(=O)C4CC4)nn23)cc1 [Compound 119] displays pIC50 of > 7.00

According to the records, this compound O=C(Nc1nc2cccc(-c3ccc(CNC4CCS(=O)(=O)C4)cc3)n2n1)C1CC1 (centres unmarked) [Compound 304] displays pIC50 of > 7.00

According to the records, this compound O=C(Nc1nc2cccc(-c3ccc(CN4CCCC(O)C4)cc3)n2n1)C1CC1 (centres unmarked) [Compound 313] displays pIC50 of > 7.00

According to the records, this compound O=C(Nc1nc2cccc(-c3ccc(C(=O)N4CCC(N5CCOCC5)CC4)cc3)n2n1)C1CC1 [Compound 101] displays pIC50 of 6.30 to 7.00

According to the records, this compound O=C(Nc1nc2cccc(-c3cnn(Cc4cccnc4)c3)n2n1)C1CC1 [Compound 185] displays pIC50 of > 7.00

According to the records, this compound O=C(Nc1nc2cccc(-c3cn(Cc4ccccn4)nn3)n2n1)C1CC1 [Compound 193] displays pIC50 of < 6.00

According to the records, this compound Cn1cc(-c2ccc(COc3ccc(-c4cccc5nc(NC(=O)C6CC6)nn45)cc3)cn2)cn1 [Compound 178] displays pIC50 of > 7.00

According to the records, this compound O=C(Nc1nc2cccc(-c3cccc(CN4CCOCC4)c3)n2n1)C1CC1 [Compound 2] displays pIC50 of 6.30 to 7.00
